The following compounds are shown together with reported pIC50 values.
Target: Thromboxane A2 receptor (Homo sapiens, UniProt P21731)
Sequence (P21731 whole entry): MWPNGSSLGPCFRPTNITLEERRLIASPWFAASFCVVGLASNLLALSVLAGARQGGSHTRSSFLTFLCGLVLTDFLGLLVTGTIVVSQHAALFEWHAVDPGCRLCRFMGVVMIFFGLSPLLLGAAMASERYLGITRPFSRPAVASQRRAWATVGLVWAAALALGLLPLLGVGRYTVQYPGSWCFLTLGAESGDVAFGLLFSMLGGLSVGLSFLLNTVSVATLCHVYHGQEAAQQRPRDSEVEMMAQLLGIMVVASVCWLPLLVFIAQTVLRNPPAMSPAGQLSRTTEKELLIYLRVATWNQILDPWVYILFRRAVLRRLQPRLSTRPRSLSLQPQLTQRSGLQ
Test: Antagonist activity at human thromboxane A2 receptor isoform alpha expressed in HEK293 cells assessed as inhibition of U46619-induced calcium mobilization
Format: functional, cell-based
pIC50: −log10 of the molar value.
OUTCOME_MEASURE: pIC50

CCCCCNC(=O)NS(=O)(=O)c1cc([N+](=O)[O-])ccc1Oc1ccc(Cl)c(C)c1 | 5.43
CCCCCNC(=O)NS(=O)(=O)c1cc([N+](=O)[O-])ccc1Oc1ccccc1Cl | 5.51
Cc1ccc(Oc2ccc([N+](=O)[O-])cc2S(=O)(=O)NC(=NC(C)(C)C)NC#N)cc1 | 5.68
Cc1cc(Oc2ccc([N+](=O)[O-])cc2S(=O)(=O)NC(=O)NC(C)(C)C)ccc1Cl | 5.97
CC(C)(C)NC(=O)NS(=O)(=O)c1cc([N+](=O)[O-])ccc1Oc1cccc(Cl)c1 | 6.16
CC(C)(C)NC(=O)NS(=O)(=O)c1cc([N+](=O)[O-])ccc1Oc1ccc(Cl)cc1 | 5.52
COc1ccc(Oc2ccc([N+](=O)[O-])cc2S(=O)(=O)NC(=O)NC(C)(C)C)cc1 | 5.71
Cc1ccccc1Oc1ccc([N+](=O)[O-])cc1S(=O)(=O)NC(=O)NC(C)(C)C | 5.42
Cc1cccc(Oc2ccc([N+](=O)[O-])cc2S(=O)(=O)NC(=O)NC(C)(C)C)c1 | 6.40
